Target: T1, human gastric inhibitory peptide receptor (GIPR) (human, UniProt P48546 22-466)
T1 sequence (looked up): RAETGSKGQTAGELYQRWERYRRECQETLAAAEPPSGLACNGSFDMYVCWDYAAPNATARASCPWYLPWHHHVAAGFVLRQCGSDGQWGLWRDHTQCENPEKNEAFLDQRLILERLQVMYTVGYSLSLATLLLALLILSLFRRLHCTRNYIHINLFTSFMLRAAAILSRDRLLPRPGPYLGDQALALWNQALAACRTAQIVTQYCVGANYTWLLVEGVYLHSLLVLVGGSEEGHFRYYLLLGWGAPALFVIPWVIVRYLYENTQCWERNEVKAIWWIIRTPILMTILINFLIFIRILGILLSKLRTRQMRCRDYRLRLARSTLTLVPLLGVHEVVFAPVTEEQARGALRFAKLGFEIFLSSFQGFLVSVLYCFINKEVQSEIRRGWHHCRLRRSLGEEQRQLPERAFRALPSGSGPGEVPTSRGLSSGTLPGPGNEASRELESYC
Test: cell-based or functional assay
Square brackets hold non-standard residues; d marks the D form. Ends that are not written are not given here. αMeF = C[C@](N)(Cc1ccccc1)C(=O)O; Aib = CC(C)(N)C(=O)O
Form field: hGIPR cAMP Rel EC50 (one value per entry).
Provide only the numeric value, understood in nM.

// known answers, use as guide
{"BINDER": "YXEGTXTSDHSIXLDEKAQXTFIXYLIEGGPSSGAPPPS (Y-Aib-EGT-αMeF(2F)-TSDHSI-αMeF-LDEK((2-[2-(2-Amino-ethoxy)-ethoxy]-acetyl)2-(γ-Glu)-CO-(CH2)16-CO2H)AQ-Aib-TFI-(D-Glu)-YLIEGGPSSGAPPPS-NH2) [Example 169]", "UNIT OF MEASUREMENT": "nM", "hGIPR cAMP Rel EC50": 0.86}
{"BINDER": "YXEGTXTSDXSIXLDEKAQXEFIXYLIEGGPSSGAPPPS (Y-Aib-EGT-αMeF(2F)-TSD-(D-His)-SI-αMeF-LDEK((2-[2-(2-Amino-ethoxy)-ethoxy]-acetyl)2-(γ-Glu)-CO-(CH2)18-CO2H)AQ-Aib-EFI-(D-Glu)-YLIEGGPSSGAPPPS-NH2) [Example 185]", "UNIT OF MEASUREMENT": "nM", "hGIPR cAMP Rel EC50": 0.632}

Please look at the following binder next.
Input line: Return reported hGIPR cAMP Rel EC50; argument: Y[Aib]EGT[αMeF]TSDYSIXLDKKAQ[Aib][Aib]FIEYLIEGGPSSGAPPPS-NH2 (not fully specified (residues 13, 17); printed as Y-Aib-EGT-αMeF-TSDYSI-αMeF-LDKK((2-[2-(2-Amino-ethoxy)-ethoxy]-acetyl)2-(γ-Glu)-CO-(CH2)18-CO2H)AQ-Aib-Aib-FIEYLIEGGPSSGAPPPS-NH2) [Example 143]
Output line: 0.0515
